ASSAY METHOD TEXT: Log P by HPLC on reversed phase columns (EEC directive 79/831 Annex V.A8)
Format: physicochemical
STUDY CONDITIONS: method [a]: LC-UV, acidic range, 0.1% formic acid in water and acetonitrile as eluent
Experimental: In the above tables, measurement of Log P values was performed according to EEC directive 79/831 Annex V.A8 by HPLC (High Performance Liquid Chromatography) on reversed phase columns with the following methods: • ^[a] If more than one Log P value is available within the same method, all the values are given and separated by “+”. […]
MEASURED QUANTITY: LogP

Cc1c(C(=O)NC(C(=O)OC[Si](C)(C)C)C(C)C)sc(Br)c1Br (stereo not drawn) [I.20]	5.78^[a]
Cc1c(C(=O)NC(C(=O)OC2CCOC2)C(C)C)sc(Br)c1Br (stereo not drawn) [I.19]	3.78^[a]

Q: Endpoint output: LogP of Cc1c(C(=O)NC2(C(=O)O)CC2)sc(Cl)c1Cl [I.51] . Value?
Ans: 2.26^[a]

Q: Note, next up: CCCOC(=O)C(NC(=O)c1sc(Br)c(Br)c1C)C(C)C (stereo not drawn) [I.54]
Ans: 4.77^[a]

Q: Cc1c(C(=O)NCC(=O)OC(C)C)sc(Br)c1Br [I.78] ?
Ans: 3.40^[a]

Q: How about this compound: Cc1c(C(=O)NC(C(=O)OCC(F)(F)F)C(C)C)sc(Br)c1Br (stereo not drawn) [I.59]
Ans: 4.51^[a]

Q: Another compound to look at: COC(=O)C(CCSC)NC(=O)c1sc(Cl)c(Cl)c1C (stereo not drawn) [I.35]
Ans: 3.55^[a]

Q: And the next one, CCOC(=O)[C@H](CC(C)C)NC(=O)c1sc(Cl)c(Cl)c1C [I.33] ?
Ans: 4.54^[a]

Q: Also COC(=O)CNC(=O)c1sc(Br)c(Br)c1I [VIa.03] , if possible.
Ans: 2.96^[a]
